Biological target: T1, Msi3, the sole Hsp110 of Candida albicans (Candida albicans, UniProt Q96VB9 1-701)
T1 chain: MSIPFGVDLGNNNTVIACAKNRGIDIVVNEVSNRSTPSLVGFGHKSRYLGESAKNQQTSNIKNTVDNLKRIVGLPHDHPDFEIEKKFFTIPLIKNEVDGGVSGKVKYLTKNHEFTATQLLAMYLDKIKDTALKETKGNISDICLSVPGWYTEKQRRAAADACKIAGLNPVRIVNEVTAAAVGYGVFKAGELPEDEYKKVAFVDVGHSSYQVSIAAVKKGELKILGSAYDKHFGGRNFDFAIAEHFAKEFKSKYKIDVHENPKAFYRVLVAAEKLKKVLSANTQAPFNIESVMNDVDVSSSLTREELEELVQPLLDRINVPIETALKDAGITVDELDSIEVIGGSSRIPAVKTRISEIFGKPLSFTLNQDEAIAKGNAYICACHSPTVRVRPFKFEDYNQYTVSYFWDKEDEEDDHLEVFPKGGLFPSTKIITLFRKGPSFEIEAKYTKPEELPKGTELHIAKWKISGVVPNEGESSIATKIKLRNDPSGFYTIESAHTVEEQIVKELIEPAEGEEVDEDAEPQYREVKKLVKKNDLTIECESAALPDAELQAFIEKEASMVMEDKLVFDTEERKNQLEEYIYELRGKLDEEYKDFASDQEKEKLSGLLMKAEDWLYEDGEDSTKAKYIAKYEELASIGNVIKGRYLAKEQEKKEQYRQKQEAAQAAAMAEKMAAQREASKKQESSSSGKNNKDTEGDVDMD
Assay: FP; +2H (100 µM)
Where no end group is shown, it is not given here.
quantity-kind: Kd (µM)

[
  {
    "binder": "fluorescein-VYDFFVWL [TRP2-181 peptide labeled with a fluorescein at the N-terminus]",
    "reported-result": 5.45
  }
]

Origin of measurements: paper PMC10182041
